Values from patent US6821980B1

Task for the reader: assign each of the following compounds its reported MIC.
- Tested on: Streptococcus pneumoniae 1/1
- Experiment Description: MIC against Streptococcus pneumoniae 1/1
- Type: cell-based
- Setup Conditions: Table 2; Streptococcus pneumoniae 1/1, trimethoprim- and penicillin-resistant, serotype 6; clinical isolate; read-out: MIC Sp1/1
Write the quantity with the unit trailing the number.

Past entries and their recorded results:
CCOc1cc(Cc2cnc(N)nc2N)cc(OCC)c1-c1ccc(OC)c(COC)c1
4 µg/mL
CCOc1cc(Cc2cnc(N)nc2N)cc(OCC)c1-c1ccc(CNCC(F)(F)F)cc1
4 µg/mL

I'm hoping you can list MIC for every compound here, please.
1. CCOc1cc(Cc2cnc(N)nc2N)cc(OCC)c1-c1ccc(COCC(=O)N2CCCCC2)s1
2. CCOc1cc(Cc2cnc(N)nc2N)cc(OS(=O)(=O)N(C)C2CC2)c1-c1ccc(CN2CCOCC2)c(N)c1
3. CCOc1cc(Cc2cnc(N)nc2N)cc(OS(=O)(=O)C(C)C)c1-c1ccc(OC)cc1
4. CCOc1cc(Cc2cnc(N)nc2N)cc(OC(C)C)c1-c1ccc(O)cc1
5. CCOc1cc(Cc2cnc(N)nc2N)cc(OCCC2CCOCC2)c1-c1cccc(N)c1
6. CCOc1cc(Cc2cnc(N)nc2N)cc(OCC)c1-c1ccc(COCC(=O)N2CCOCC2)s1

1. 2 µg/mL
2. 2 µg/mL
3. 2 µg/mL
4. 4 µg/mL
5. 1 µg/mL
6. 2 µg/mL

I'm hoping you can list MIC for every compound here, please.
1. CCOc1cc(Cc2cnc(N)nc2N)cc(OS(=O)(=O)C(C)C)c1-c1ccc(OC)c(N)c1
2. CCOc1cc(Cc2cnc(N)nc2N)cc(OS(=O)(=O)C2CCC2)c1-c1cc(N)cc(F)c1
3. CCOc1cc(Cc2cnc(N)nc2N)cc(OCC)c1-c1ccc(CN2CCCC2)cc1
4. CCOc1cc(Cc2cnc(N)nc2N)cc(OCC2CC2)c1-c1ccc(OCC#N)cc1
5. CCOc1cc(Cc2cnc(N)nc2N)cc(OCC2CC2)c1-c1ccc(N)cc1
6. CCOc1cc(Cc2cnc(N)nc2N)cc(OS(=O)(=O)C2CC2)c1-c1ccc(CN2CCOCC2)c(N)c1

1. 1 µg/mL
2. 2 µg/mL
3. 8 µg/mL
4. 2 µg/mL
5. 2 µg/mL
6. 4 µg/mL

I'm hoping you can list MIC for every compound here, please.
1. CCOc1cc(Cc2cnc(N)nc2N)cc(OS(=O)(=O)N(C)C)c1-c1ccc(CN2CCOCC2)c(N)c1
2. CCOc1cc(Cc2cnc(N)nc2N)cc(OC2CCC2)c1-c1cccc(N)c1
3. CCOc1cc(Cc2cnc(N)nc2N)cc(OS(=O)(=O)N2CCOCC2)c1-c1ccc(O)cc1
4. CCOc1cc(Cc2cnc(N)nc2N)cc(OCC2(CC#N)CC2)c1-c1cccc(N)c1
5. CCOc1cc(Cc2cnc(N)nc2N)cc(OCC)c1-c1cccc(OCCOC)c1
6. CCOc1cc(Cc2cnc(N)nc2N)cc(OS(=O)(=O)N(C)CC)c1-c1ccc(N)c(F)c1
7. CCOc1cc(Cc2cnc(N)nc2N)cc(OS(=O)(=O)CC(C)C)c1-c1ccc(N)cc1

1: 2 µg/mL; 2: 1 µg/mL; 3: 1 µg/mL; 4: 2 µg/mL; 5: 4 µg/mL; 6: 1 µg/mL; 7: 0.5 µg/mL

###

- Tested System: purified DHFR of strain Sp1/1 of Streptococcus pneumoniae (Streptococcus pneumoniae serotype 4, UniProt Q54801)
- Sequence (Q54801 1-168 I100L): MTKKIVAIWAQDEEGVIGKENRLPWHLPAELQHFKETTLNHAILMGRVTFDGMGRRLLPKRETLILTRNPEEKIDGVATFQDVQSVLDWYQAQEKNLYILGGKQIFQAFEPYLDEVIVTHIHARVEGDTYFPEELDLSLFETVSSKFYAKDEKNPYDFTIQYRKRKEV
- Type: biochemical
- Setup Conditions: Table 2; IC50 against purified DHFR of strain Sp1/1
Task for the reader: assign each of the following compounds its reported pIC50.
Answers are plain numbers, as −log10 of the molar value.

Past entries and their recorded results:
CCOc1cc(Cc2cnc(N)nc2N)cc(OCC)c1-c1ccc(OC)c(COC)c1 [Example 02-aa]
7.22
CCOc1cc(Cc2cnc(N)nc2N)cc(OCC)c1-c1cccc(C=O)c1 [Example 04-u]
7.19
CCOc1cc(Cc2cnc(N)nc2N)cc(OCC)c1-c1cccc(O)c1 [Example 05-d]
7.15

Switching to the query record.
// sample CCOc1cc(Cc2cnc(N)nc2N)cc(OCC(F)(F)F)c1-c1ccc(O)cc1 [Example 08-s] , its pIC50 was 7.51

###

Task for the reader: assign each of the following compounds its reported MIC.
- System: Staphylococcus aureus 101
- Experiment Description: MIC against Staphylococcus aureus 101
- Format: cell-based
- Setup Conditions: Table 2; Staphylococcus aureus 101, MRSA- and trimethoprim-resistant; clinical isolate; read-out: MIC Sa101
One number for each entry, in µg/mL.

Past entries and their recorded results:
CCOc1cc(Cc2cnc(N)nc2N)cc(OS(=O)(=O)CC)c1-c1ccc(O)cc1 [Example 15-b]
4
CCOc1cc(Cc2cnc(N)nc2N)cc(OS(=O)(=O)CC(C)(C)C)c1-c1ccc(O)cc1 [Example 15-h]
4
CCOc1cc(Cc2cnc(N)nc2N)cc(OS(=O)(=O)CC(C)(C)C)c1-c1ccc(OC)c(N)c1 [Example 37-b]
4
CCOc1cc(Cc2cnc(N)nc2N)cc(OCC)c1-c1cnc(N2CCOCC2)nc1 [Example 04-k]
8
CCOc1cc(Cc2cnc(N)nc2N)cc(OCCc2ccccn2)c1-c1cccc(N)c1 [Example 07-g]
8

I'm hoping you can list MIC for every compound here, please.
1. CCOc1cc(Cc2cnc(N)nc2N)cc(OS(=O)(=O)N(C)CC)c1-c1ccc(N)c(F)c1 [Example 28-b]
2. CCOc1cc(Cc2cnc(N)nc2N)cc(OS(=O)(=O)CC(C)C)c1-c1ccc(NCCO)cc1 [Example 36-e]

1. 2
2. 4

I'm hoping you can list MIC for every compound here, please.
1. CCOc1cc(Cc2cnc(N)nc2N)cc(OCC)c1-c1ccc(OC)c(OC)c1 [Example 02-l]
2. CCOc1cc(Cc2cnc(N)nc2N)cc(OCC2(CCC#N)CC2)c1-c1ccc(OC)cc1 [Example 09-c]
3. CCOc1cc(Cc2cnc(N)nc2N)cc(OC2CCC2)c1-c1ccc2c(c1)OCO2 [Example 10-e]
4. CCOc1cc(Cc2cnc(N)nc2N)cc(OS(=O)(=O)N(C)C)c1-c1ccc(NC)cc1 [Example 26-a]

[8, 4, 8, 1]

I'm hoping you can list MIC for every compound here, please.
1. CCOc1cc(Cc2cnc(N)nc2N)cc(OS(=O)(=O)N(C)C)c1-c1ccc(N)cc1 [Example 22-a]
2. CCOc1cc(Cc2cnc(N)nc2N)cc(OS(=O)(=O)N2CCOCC2)c1-c1cccc(N)c1 [Example 19-e]
3. CCOc1cc(Cc2cnc(N)nc2N)cc(OCC)c1-c1ccc(N)c(F)c1 [Example 04-r]
4. CCOc1cc(Cc2cnc(N)nc2N)cc(OC2CCCC2COC)c1-c1ccc(O)cc1 (racemic) [Example 08-v]
5. CCOc1cc(Cc2cnc(N)nc2N)cc(OC(C)C)c1-c1ccc(OC)cc1 [Example 09-f]

1: 2; 2: 2; 3: 8; 4: 8; 5: 8

###

- Tested System: purified DHFR of strain Sp1/1 of Streptococcus pneumoniae (Streptococcus pneumoniae serotype 4)
- Assay type: biochemical
- Setup Conditions: Table 2; IC50 against purified DHFR of strain Sp1/1
Parameter Measured: pIC50
Answers are plain numbers, as −log10 of the molar value.

CCOc1cc(Cc2cnc(N)nc2N)cc(OS(=O)(=O)N(C)C2CC2)c1-c1ccc(CN2CCOCC2)c(N)c1 [Example 30-b]
7.85
CCOc1cc(Cc2cnc(N)nc2N)cc(OS(=O)(=O)N(C)C)c1-c1ccc(SC)cc1 [Example 43-a]
8.17
CCOc1cc(Cc2cnc(N)nc2N)cc(OS(=O)(=O)C2CC2)c1-c1ccc(NC)cc1 [Example 34-b]
7.96
CCOc1cc(Cc2cnc(N)nc2N)cc(OCC2(CCC#N)CC2)c1-c1ccc(OC)cc1 [Example 09-c]
7.80
CCOc1cc(Cc2cnc(N)nc2N)cc(OS(=O)(=O)N2CCOCC2)c1-c1ccc(N)cc1 [Example 22-d]
8.21
CCOc1cc(Cc2cnc(N)nc2N)cc(OS(=O)(=O)C(C)C)c1-c1ccc(O)cc1 [Example 15-c]
7.92

I'm hoping you can list pIC50 for every compound here, please.
1. CCOc1cc(Cc2cnc(N)nc2N)cc(OS(=O)(=O)N(C)CC)c1-c1ccc(N)c(F)c1 [Example 28-b]
2. CCOc1cc(Cc2cnc(N)nc2N)cc(OS(=O)(=O)CC2CCCO2)c1-c1ccc(N)c(F)c1 (centres unmarked) [Example 42-b]

1. 8.17
2. 8.12
